# TGI values compiled below
Tested on: KM20L2 colon
Assay: NCI tumour cell line growth inhibition, 48 h

Some molecules with known TGI results, for comparison:
* N=C(N)/N=C(/C=C/c1ccccc1)CC1OC(=O)c2ccccc21 (stereo not given) | > 100 µM
* CC(=O)O[C@]1(C(C)=O)CC[C@H]2[C@@H]3C[C@H](C)C4=CC(=O)C=C[C@]4(C)[C@@]3(F)[C@@H](O)C[C@@]21C | > 100 µM
* Oc1c(Cl)c2nccnc2c2ccccc12 | > 100 µM
* COc1cc2c(cc1O)[C@H](C)C(c1ccc(Cl)cc1)O2 (stereo not given in full) | 66.2 µM

Please look at the following molecule next.
Readout TGI for CCCCN(CC)C(=O)C(=O)C1C(=O)Nc2ccccc2S1=O (stereo not given) , test system KM20L2 colon, was > 100 µM

---

Tested on: DU-145 prostate
Assay: NCI tumour cell line growth inhibition, 48 h; in the data active = GI50 below about 0.43 µM; inactive = the rest
Pick one: active, inactive

• COc1ccc2c(c1)C(=O)c1c-2c(NCCCN(C)C)nc2ccccc12 = inactive
• COc1ccc(C2C3=C(NC(=O)C2C#N)c2ccc4ccccc4c2OCC3)cc1 (stereo not given) = inactive
• COC[C@H]1C(=O)NCC(=O)N2NCCC[C@H]2C(=O)N(O)[C@H](C)C(=O)O[C@@H](C(C)C)[C@H](NC(=O)[C@](C)(O)[C@]2(O)CC[C@@H](CC(C)C)[C@H](C)O2)C(=O)N2NCCC[C@@H]2C(=O)N1O = active
• Brc1c[n+](Cc2ccc3ccccc3c2)cn1Cc1ccc2ccccc2c1 = inactive

Next compound, please.
Exercise: // param item: O=C(NNc1nc2cc(F)ccc2n2c(CN3CCOCC3)ccc12)c1ccccc1 ; yields the recorded call
Key: active

---

# GI50 values compiled below
Tested on: HCC-2998 colon
Test: NCI tumour cell line growth inhibition, 48 h

Some compounds with known GI50 results, for comparison:
* O=C1C(=O)c2ccc(Br)cc2-c2cc(Br)ccc21 | 21.3 µM
* Cc1ccc(NS(=O)(=O)c2ccc(-c3cnc(C4CC4)o3)cc2)cc1 | 10.8 µM

response.value for OCC1SC(n2cnc3cncnc32)C(O)C1O (stereo unspecified) (field: GI50) = > 100 µM

response.value for CN(C(=O)C1CCCCC1)c1ccccc1I(=O)=O (field: GI50) = 70.3 µM

response.value for COc1ccc2c(c1)O/C(=C\c1cccc(OCC(=O)Nc3nc4ccccc4s3)c1)C2=O (field: GI50) = > 100 µM

response.value for Cc1cc(N(CCCl)CCCl)ccc1C=Nc1cccnc1 (field: GI50) = 16.8 µM

---

System: SNB-78 CNS
Assay: NCI tumour cell line growth inhibition, 48 h
# TGI values compiled below
Enter your answer as a number in µM; do not include the unit.

- COc1ccc(OC)c(/C=C/[N+](=O)[O-])c1: 58.8

Readout TGI for CC1=C/C(=C(\c2ccc(N(C)C)cc2)c2ccc([N+](C)(C)C)cc2)C=CC1=[N+](C)C , test system SNB-78 CNS, was 53.5

Readout TGI for CCc1nc2c(O)ccc(O)c2nc1C , test system SNB-78 CNS, was 62.6

---

Tested on: NCI-H226 lung
Assay: NCI tumour cell line growth inhibition, 48 h; in the data active = GI50 below about 0.43 µM; inactive = the rest
Where a SMILES comes first, the peptide text is derived from it. [ ]: non-standard residue; d: D form. The star is where a group is joined. ξ: configuration not given here. X16 = COC1=CC(=O)N(C(=O)C(O*)C(C)C)C1Cc1ccccc1; ξNMe2Val = CC(C)C(C(=O)*)N(C)C; NMeV = CN[CH](C(=O)O)C(C)C
Pick one: active, inactive

Worked cases, answers included:
* O=C1Nc2ccc(Cl)cc2/C1=C\c1c(-c2ccc(F)cc2)nc2ccccn12 | inactive
* O=C(c1ccccc1)c1ccc(-c2ccc(O)cc2)cc1 | inactive
* COc1ccc(-c2nc(-c3nc4ccc(F)cc4[nH]3)cc3c2[nH]c2ccccc23)cc1 | inactive
* COc1ccc2c(c1)Oc1nc(N)c(C#N)c(N)c1C2Sc1ccc(SC)cc1 (stereo not drawn) | inactive
* COC1=CC(=O)N(C(=O)C(OC(=O)C2CCCN2C(=O)C2CCCN2C(=O)C(C(C)C)N(C)C(=O)C(NC(=O)C(C(C)C)N(C)C)C(C)C)C(C)C)C1Cc1ccccc1 (stereo not drawn) (ξNMe2Val-V[NMeV]PP-X16; configuration not given here) | active

Exercise: // param item: O=S(=O)(Nc1ccc(-c2nc(-c3cccc(OCCN4CCOCC4)c3)c(-c3ccnc(Br)c3)[nH]2)cc1)c1ccccc1 ; yields the recorded call
Key: inactive

Exercise: // param item: Cc1cc(N(CCCl)CCCl)ccc1C=Nc1cccnc1 ; yields the recorded call
Key: active

Exercise: // param item: Cc1ccc(S(=O)(=O)N(C)C)cc1[N+](=O)[O-] ; yields the recorded call
Key: inactive

---

Test system: ACHN renal
Test: NCI tumour cell line growth inhibition, 48 h; in the data active means GI50 below about 0.43 µM; inactive means the rest
Pick one: 1 (yes) = active, 0 (no) = inactive

Worked cases, answers included:
- COc1ccc2c(c1)C(=O)c1c-2c(NCCCN(C)C)nc2ccccc12: 0 (no)
- Cn1ncc2c(Nc3ccc(Br)cc3)nc(Nc3ccc(Br)cc3)nc21: 0 (no)
- O=C1Nc2ccc(F)c3c(OCCO)cc(-c4ccc[nH]4)c1c23: 0 (no)
- O=C1OCC(c2ccc(O)c(O)c2)=C1c1cc(O)c(O)c(O)c1: 0 (no)
- O=C1C(=O)c2ccc(Br)cc2-c2cc(Br)ccc21: 0 (no)
- COc1ccc2c(c1)Oc1nc(N)c(C#N)c(N)c1C2Sc1ccc(SC)cc1 (stereo not given): 0 (no)
- CCC(=O)Sc1ccccc1C(=O)Nc1ccc(Cl)cc1: 0 (no)
- CC1(C)CCC(S(=O)(=O)c2ccc3c(c2)/C(=N\O)c2cc(S(=O)(=O)N4CCC(O)(c5cccc(C(F)(F)F)c5)CC4)ccc2-3)CC1: 1 (yes)
- O=C1C=C(SCCO)C(=O)c2ccccc21: 0 (no)

Next compound, please.
Exercise: // param item: O=C1c2ccn(CCCCN3CCOCC3)c2C(=O)c2c1c(O)c1ccccc1c2O ; yields the recorded call
Key: 0 (no)

---

System: SW-620 colon
Experiment: NCI tumour cell line growth inhibition, 48 h
# TGI values compiled below

Some molecules with known TGI results, for comparison:
* N#CI1OC(=O)c2ccccc21 | > 100 µM
* c1cnc2c(c1)-n1cccc1C1(CCOCC1)NN2 | > 100 µM
* Oc1c(Cl)c2nccnc2c2ccccc12 | > 100 µM
* Cc1ccc(NS(=O)(=O)c2ccc(-c3cnc(C4CC4)o3)cc2)cc1 | 13.2 µM
* CCCCN(CC)C(=O)C(=O)C1C(=O)Nc2ccccc2S1=O (configuration not stated) | > 100 µM

response.value for Cc1ncc([N+](=O)[O-])n1CCN(C)CCCCn1ccnc1[N+](=O)[O-] (field: TGI) = > 100 µM

response.value for COc1cc(OC)cc(N2CCC(c3c(N)nc(N)nc3Cl)CC2)c1 (field: TGI) = > 100 µM

response.value for O=C(CCSC(CC(=O)c1ccc(Cl)cc1)c1ccc(Cl)cc1)Nc1ccc(Cl)cc1 (configuration not stated) (field: TGI) = 10.5 µM

response.value for CC(=O)N[C@@H](Cc1ccc(O)cn1)C(=O)NCc1cccc(F)c1 (field: TGI) = > 100 µM

response.value for CC1C(c2ccc(N(C)C)cc2)c2cc3c(cc2OC1N1CCCC1)OCO3 (configuration not stated) (field: TGI) = > 100 µM

response.value for COc1cc2c(cc1OC)C(=O)N(c1ccc(O)cc1)C2 (field: TGI) = > 100 µM

response.value for N#C/C(=C\c1ccc(CP(=O)(O)O)cc1)C(N)=O (field: TGI) = > 100 µM

---

System: NCI-H460 lung
Experiment: NCI tumour cell line growth inhibition, 48 h
readout-label: log10 TGI (log10 of the value in µM)
Annotation: log10 of TGI, µM basis.

- CN(C)CC1CCC/C(=C\c2ccc(N(C)C)cc2)C1=O (stereo not given): 1.45
- O=C(Cc1ccc(Cl)c(Cl)c1)NCCCN1CCN(CCCN2CCCCC2)CC1: 1.53
- O=C(CCN1CCCCC1CCO)Nc1ccc2c(c1)C(=O)c1ccc(NC(=O)CCN3CCCCC3CCO)cc1C2=O (stereo not given): 1.31
- CCCCCCC1CCC2CCCC(C)N12 (stereo not given): 1.78

Please look at the following compound next.
response.value for C=C1C(=O)O[C@H]2[C@H]1CC/C(COC(=O)OCCCCCOC(=O)OC/C1=C/CC[C@@]3(C)O[C@H]3[C@H]3OC(=O)C(=C)[C@@H]3CC1)=C\CC[C@@]1(C)O[C@@H]21 (field: log10 TGI) = 0.67

---

Tested on: HT29 colon
Assay: NCI tumour cell line growth inhibition, 48 h
Where a SMILES comes first, the peptide text is derived from it. [ ]: non-standard residue; d: D form. The star is where a group is joined. ξ: configuration not given here. X16 = COC1=CC(=O)N(C(=O)C(O*)C(C)C)C1Cc1ccccc1; ξNMe2Val = CC(C)C(C(=O)*)N(C)C; NMeV = CN[CH](C(=O)O)C(C)C
readout-label: TGI (µM)
Enter your answer as a number in µM; do not include the unit.

• CN(C)CC1CCC/C(=C\c2ccc(N(C)C)cc2)C1=O (centres undefined) = 3.6
• C=C(NC(=O)C(=C)NC(=O)c1csc(C2=NC3c4csc(n4)C4NC(=O)c5csc(n5)C(C(C)(O)C(C)O)NC(=O)C5CSC(=N5)/C(=C/C)NC(=O)C(C(C)O)NC(=O)c5csc(n5)C3(CC2)NC(=O)C(C)NC(=O)C(=C)NC(=O)C(=C)NC(=O)C(C(C)C)NC2C=Cc3c(C(C)O)cc(nc3C2O)C(=O)OC4C)n1)C(N)=O (centres undefined) = 16

Please look at the following compound next.
response.value for COC1=CC(=O)N(C(=O)C(OC(=O)C2CCCN2C(=O)C2CCCN2C(=O)C(C(C)C)N(C)C(=O)C(NC(=O)C(C(C)C)N(C)C)C(C)C)C(C)C)C1Cc1ccccc1 (centres undefined) (ξNMe2Val-V[NMeV]PP-X16; configuration not given here) (field: TGI) = 0.0066
